The following molecules were reported with Kd values on Atypical kinase COQ8A, mitochondrial (Homo sapiens, UniProt Q8NI60) in different studies.
Sequence (Q8NI60 whole entry): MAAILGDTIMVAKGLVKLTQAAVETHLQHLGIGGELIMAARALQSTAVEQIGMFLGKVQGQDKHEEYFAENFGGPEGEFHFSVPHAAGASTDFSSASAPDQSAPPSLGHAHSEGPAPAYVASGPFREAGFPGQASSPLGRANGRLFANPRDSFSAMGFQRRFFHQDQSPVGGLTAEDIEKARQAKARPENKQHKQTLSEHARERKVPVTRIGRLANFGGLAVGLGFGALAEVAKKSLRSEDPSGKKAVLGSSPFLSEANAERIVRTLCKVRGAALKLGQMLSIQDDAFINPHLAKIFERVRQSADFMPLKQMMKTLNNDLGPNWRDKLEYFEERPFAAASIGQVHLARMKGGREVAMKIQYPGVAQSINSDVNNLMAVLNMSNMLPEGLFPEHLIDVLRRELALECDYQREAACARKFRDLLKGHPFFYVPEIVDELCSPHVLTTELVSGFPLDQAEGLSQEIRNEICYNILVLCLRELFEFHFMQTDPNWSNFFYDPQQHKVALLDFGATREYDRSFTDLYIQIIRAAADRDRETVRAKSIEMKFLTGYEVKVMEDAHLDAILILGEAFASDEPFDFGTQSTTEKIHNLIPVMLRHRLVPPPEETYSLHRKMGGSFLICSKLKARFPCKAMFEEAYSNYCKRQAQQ
readout kind: Kd (nM)

INSERT INTO assay_data (structure_notation, readout_kind, unit_name, obs_value) VALUES
  ('COc1cc(Nc2ccnc3ccc(Br)cc23)cc(OC)c1OC', 'Kd', 'nM', 260),
  ('COc1cc2nccc(Nc3cc(OC)c(OC)c(OC)c3)c2cc1OC', 'Kd', 'nM', 250),
  ('COc1cc(Nc2ccnc3ccc(C#N)cc23)cc(OC)c1OC', 'Kd', 'nM', 170),
  ('NC(=O)c1c(OCc2c(F)cc(Br)cc2F)nsc1NC(=O)NCCCCN1CCCC1', 'Kd', 'nM', 3050),
  ('COc1ccc2nccc(Nc3cc(OC)c(OC)c(OC)c3)c2c1', 'Kd', 'nM', 2000),
  ('COc1cc(Nc2ccnc3cc(C#N)ccc23)cc(OC)c1OC', 'Kd', 'nM', 66);
